# Test system: NCI-H23
# experiment_notes: relative viability (nuclei count vs DMSO), 5 days (fraction); higher = more cells survive
# condition_description: first compound 0.01 µM
# key: entry, value: relative viability

Reference set, count: 4
compound	measurement_target	relative viability
Cc1cn(-c2cc(NC(=O)c3ccc(C)c(Nc4nccc(-c5cccnc5)n4)c3)cc(C(F)(F)F)c2)cn1 [Nilotinib] + CC(=O)c1c(C)c2cnc(Nc3ccc(N4CCNCC4)cn3)nc2n(C2CCCC2)c1=O [Palbociclib] (partner 0.5 µM)	NCI-H23	0.512
Cc1cn(-c2cc(NC(=O)c3ccc(C)c(Nc4nccc(-c5cccnc5)n4)c3)cc(C(F)(F)F)c2)cn1 [Nilotinib] + CC(=O)Nc1cccc(-n2c(=O)n(C3CC3)c(=O)c3c(Nc4ccc(I)cc4F)n(C)c(=O)c(C)c32)c1 [Trametinib] (partner 0.02 µM)	NCI-H23	0.292
Cc1cn(-c2cc(NC(=O)c3ccc(C)c(Nc4nccc(-c5cccnc5)n4)c3)cc(C(F)(F)F)c2)cn1 [Nilotinib] + COc1cc2c(Oc3ccc(NC(=O)C4(C(=O)Nc5ccc(F)cc5)CC4)cc3F)ccnc2cc1OCCCN1CCOCC1 [Foretinib] (partner 0.25 µM)	NCI-H23	1.02
Cc1cn(-c2cc(NC(=O)c3ccc(C)c(Nc4nccc(-c5cccnc5)n4)c3)cc(C(F)(F)F)c2)cn1 [Nilotinib] + CC1(C)CCC(c2ccc(Cl)cc2)=C(CN2CCN(c3ccc(C(=O)NS(=O)(=O)c4ccc(N[C@H](CCN5CCOCC5)CSc5ccccc5)c(S(=O)(=O)C(F)(F)F)c4)cc3)CC2)C1 [Navitoclax] (partner 0.5 µM)	NCI-H23	1.09

Now examine the next entry.
Please give the measured relative viability for this compound: Cc1cn(-c2cc(NC(=O)c3ccc(C)c(Nc4nccc(-c5cccnc5)n4)c3)cc(C(F)(F)F)c2)cn1 [Nilotinib] + CS(=O)(=O)N1CCN(Cc2cc3nc(-c4cccc5[nH]ncc45)nc(N4CCOCC4)c3s2)CC1 [Pictilisib] (partner 1 µM) 0.546
